tested on: MCF7 breast; assay: NCI tumour cell line growth inhibition, 48 h
measurement-name: TGI

Examples from the recorded data:
compound=CCOC(=O)c1c(N2CCOCC2)[nH]c(=O)c(C(c2c(O)c(C(=O)OCC)c(N3CCOCC3)[nH]c2=O)C(C)C)c1O result="> 100 µM"
compound="CC(/C=C/C=C/C=C/C=C/C=C/C(O)=C1/C(=O)C(CCC(=O)O)N(C)C1=O)=C\\C(C)C(OC1CC(O)C(O)C(C)O1)C(C)C (centres undefined)" result="33.6 µM"
compound=CN(C)c1ccc(/C=C2\C[C@H]3[C@@H]4CCC5=CC(=O)CC[C@]5(C)[C@H]4CC[C@]3(C)C2=O)cc1 result="> 100 µM"
compound=COc1ccc(Cc2nc3cc(Cl)ccc3o2)cc1 result="> 100 µM"
compound=CCOC(=O)c1c(NS(=O)(=O)c2ccc(Br)cc2)sc2c1CCCC2 result="> 62.9 µM"

Briefly, TGI measured for CCCCCCCCCCCCCCCCCC(=O)[O][Sn]([CH2]CCC)([CH2]CCC)[CH2]CCC : 0.267 µM

Reported TGI for NC(=O)c1ncn(C2OC(CO)C(O)C2O)n1 (centres undefined) was > 100 µM

According to the records, this compound CC(C)[C@@H]1NC(=O)[C@]2(C)CSC(=N2)c2csc(n2)CNC(=O)C[C@@H](/C=C/CCS)OC1=O displays TGI of > 100 µM

For reference, reported TGI for CCN(CC)C(=O)C1=C(C)NC(C)=C(C(=O)N(CC)CC)C1 stands at > 100 µM

Per the record, Clc1ccc(NCc2nnc(COc3ccc(OCc4nnc(CNc5ccc(Cl)cc5)o4)c(Cl)c3)o2)cc1 has TGI of 88.3 µM

In plain terms, COc1ccc(-c2cn3c(nc4ccccc43)c(C)n2)cc1 has a documented TGI of > 100 µM

Quick note, TGI for C/C(=N/NC(=S)N1CCCCCC1)c1ccccc1O landed at > 100 µM

Input CC(Br)C(=O)c1ccc2cc(Br)c3ccccc3c2c1 (centres undefined) . Output TGI: 30.1 µM

# TGI of O=C(O)c1cnccc1-c1cc(=O)[nH]n1-c1ccccc1 = > 100 µM

TGI reading for C#CCn1c(=O)c(C)cn(/C(=C/C(=O)OCC)C(=O)OCC)c1=O : 13.7 µM

TGI for O=[N+]([O-])c1nccn1CCCN=c1c2ccccc2n(O)c2ccccc12 is > 100 µM

Entry COc1cc(-c2nn(C)nc2-c2cc3ccccc3s2)cc(OC)c1OC ; TGI = > 100 µM

====

system: NCI-H226 lung; assay: NCI tumour cell line growth inhibition, 48 h; in the data active = GI50 below about 0.43 µM; inactive = the rest
Return exactly one item of Y for active, N for inactive

compound="C[C@H]1O[C@@H](O[C@H]2[C@@H](O)C[C@H](O[C@H]3[C@@H](O)C[C@H](O[C@H]4CC[C@]5(C)C6C[C@@H](O)[C@]7(C)[C@@H](C8=CC(=O)OC8)CC[C@]7(O)C6CC[C@@H]5C4)O[C@@H]3C)O[C@@H]2C)C[C@H](O)[C@@H]1O (some centres undefined)" group_label=Y
compound=COc1ccc(C2=C(Br)C(=O)OC2)cc1Cl group_label=N
compound=C=CC[Se]C(=O)c1ccccc1OC(C)=O group_label=N
compound=Nc1cccc(-c2nc3sccn3c2-c2ccnc(NCCCNS(=O)(=O)c3ccc(C(F)(F)F)cc3)n2)c1 group_label=N
compound=CCC[CH2][Sn]([CH2]CCC)([O]C(=O)c1cc(OC)c(OC)c(OC)c1)[O]C(=O)c1cc(OC)c(OC)c(OC)c1 group_label=N

Challenge: Check the results log: what was the call for Nc1nn(C(=O)Nc2ccc(Cc3ccccc3)cc2)c2ccc(Cl)cc12 ?
Response given: N

Challenge: Could you check what this test reported for Cc1oncc1C(=O)Nc1ccc(C(F)(F)F)cc1 ?
Response given: N

Challenge: What is the recorded call for this compound in the test? COC(=O)c1c2c(c[n+]([O-])c1C)C(=O)C(NCc1ccccc1)=CC2=O
Response given: N

Challenge: How did this test come out for COc1cccc(C2=NN(C(C)=O)C(c3cc(OC)c(OC)c(OC)c3)C2)c1 (centres undefined) ?
Response given: N

====

Entries and their measured TGI follow.
tested on: A549 NSCLC; experiment: NCI tumour cell line growth inhibition, 48 h

compound=CN(C)c1cc2c(cc1Sc1nc3c(N)nccc3n1CCNCC(C)(C)C)OCO2 test_system="A549 NSCLC" result="18.7 µM"
compound=S=c1cn[nH]c2ccc(Br)cc12 test_system="A549 NSCLC" result="> 100 µM"
compound=COc1cccc(/C=N/[N-]C(N)=O)c1[O-].[Cu+2].[OH3+].c1cnc2c(c1)ccc1cccnc12 test_system="A549 NSCLC" result="28.7 µM"
compound=NC(=O)c1cccc(N)c1 test_system="A549 NSCLC" result="> 100 µM"
compound=COc1ccc(S(=O)(=O)Nc2cc(/C=C\c3cc(OC)c(OC)c(OC)c3)cc(OC)c2OC)cc1OC test_system="A549 NSCLC" result="> 100 µM"
compound=CN(C)c1ccc(/C=C2\C[C@H]3[C@@H]4CCC5=CC(=O)CC[C@]5(C)[C@H]4CC[C@]3(C)C2=O)cc1 test_system="A549 NSCLC" result="> 100 µM"
compound=[Ce+3].[Cl-].[O-]/N=C(\c1ccccc1)c1ccccn1.[O-]/N=C(\c1ccccc1)c1ccccn1.[O-]/N=C(\c1ccccc1)c1ccccn1 test_system="A549 NSCLC" result="> 100 µM"
compound=O=C(O)c1ccc([N+](=O)[O-])c(P(=O)(O)O)c1 test_system="A549 NSCLC" result="> 100 µM"
compound="O=S1Cc2ccccc2CS1 (configuration not stated)" test_system="A549 NSCLC" result="> 100 µM"
compound=CCc1ccc(/C(C#N)=C/C=C/c2ccccc2)cc1 test_system="A549 NSCLC" result="> 100 µM"

Item N#Cc1cc(-c2ccccc2)[nH]c1-c1nccc2ccccc12 ; assay system A549 NSCLC; TGI reported as > 100 µM

Result for NC(=O)c1ncn(C2OC(CO)C(O)C2O)n1 (configuration not stated) , tested on A549 NSCLC, TGI: > 100 µM

Known value: A549 NSCLC TGI of the compound NCCCCN equals > 100 µM

# CCOC(=O)C(Cc1ccc(OC(=O)c2ccc(OC)cc2OC)cc1)NC(=O)C(F)(F)F (configuration not stated) with A549 NSCLC: TGI is > 100 µM

Record O=C(/C=C/c1ccccc1Cl)c1ccc(O)cc1 / A549 NSCLC, TGI recorded as 25.1 µM

Tested system A549 NSCLC; TGI recorded for CCOC(=O)CCC(NC(=O)N1CCN(c2c(C)nc(C)[nH]c2=O)CC1)C(=O)OCC (configuration not stated) was > 100 µM

The measured TGI that Nc1cccc(-c2nc3sccn3c2-c2ccnc(NCCCNS(=O)(=O)c3ccc(C(F)(F)F)cc3)n2)c1 showed for A549 NSCLC is 87.4 µM

====

system: RXF 393 renal; experiment: NCI tumour cell line growth inhibition, 48 h
Recorded measurements of TGI, one per entry

Observe how each entry below is paired with its result.
molecule="CCOC(=O)C(Cc1ccc(OC(=O)c2ccc(OC)cc2OC)cc1)NC(=O)C(F)(F)F (stereo not drawn)" result="36.2 µM"
molecule=COc1ccc(-c2cn3c(nc4ccccc43)c(C)n2)cc1 result="> 88.9 µM"

Consider the record given below.
response.value for Cn1ccnc1SC(F)(F)c1nc2ccccc2o1 (field: TGI) = > 100 µM

====

tested on: T-47D breast; test: NCI tumour cell line growth inhibition, 48 h
Entries and their measured GI50 follow.

# count of solved cases: 2
compound="COC(=O)C1=C2C3=C(C(=O)c4ccccc4C3=O)N(Cc3ccccc3)C2(OC(C)=O)C=CC1=O (stereo not drawn)" result="66.4 µM"
compound=O=C(/C=C/c1ccccc1O)c1ccccc1 result="14.7 µM"

Alright, here's another compound for you.
// sample CCOc1ccc(/C=N/Nc2cc(C)nc3ccc(Cl)cc23)cc1 , its GI50 was 1.94 µM

====

test system: HS 578T breast; assay: NCI tumour cell line growth inhibition, 48 h
measurement-name: TGI

molecule="CCN(CC)CC(O)CNc1ccc(NCC(O)CCl)c2c1C(=O)c1ccccc1C2=O (stereo unspecified)" measurement_name=TGI result="31 µM"
molecule=COc1ccc(Cc2nc3cc(Cl)ccc3o2)cc1 measurement_name=TGI result="> 100 µM"
molecule=Nc1nn(C(=O)Nc2ccc(Cc3ccccc3)cc2)c2ccc(Cl)cc12 measurement_name=TGI result="44.3 µM"
molecule=Cc1nc(NC(=O)COc2cccc(/C=C3\COc4ccccc4C3=O)c2)sc1C measurement_name=TGI result="8.6 µM"
molecule=O=P(O)(O)OP(=O)(O)O measurement_name=TGI result="> 100 µM"

Field: next molecule
Summary line: COc1cc(-c2nn(C)nc2-c2cc3ccccc3s2)cc(OC)c1OC , HS 578T breast, reported TGI = > 100 µM
